- Tested on: Bacillus subtilis
- experimental protocol: Antibacterial activity against Bacillus subtilis ATCC 21216 after 24 hrs by micro-broth dilution method
- Format: functional
- measurement context: ATCC 21216, 24 h
readout name: MIC (mg/L)
Answers are plain numbers, in mg/L.

Recorded MIC, per entry:
structure smiles string: Cl.Fc1ccc(CN(CCn2ccnc2)CCn2ccnc2)c(F)c1
value units: mg/L
MIC: 8

structure smiles string: Clc1ccc(CN(CCn2cncn2)CCn2cncn2)cc1Cl
value units: mg/L
MIC: 32

structure smiles string: Cc1cc2ncn(CCN(CCn3cnc4cc(C)c(C)cc43)Cc3ccc(Cl)cc3Cl)c2cc1C
value units: mg/L
MIC: 64

structure smiles string: CCn1cc(C(=O)O)c(=O)c2cc(F)c(N3CCNCC3)cc21
value units: mg/L
MIC: 1

structure smiles string: Clc1ccc(CN(CCn2ccnc2)CCn2ccnc2)cc1
value units: mg/L
MIC: 64

Value sought for every listed compound: MIC.
1. O=C(N[C@H](CO)[C@H](O)c1ccc([N+](=O)[O-])cc1)C(Cl)Cl
2. Fc1ccc(CN(CCn2cncn2)CCn2cncn2)c(F)c1
3. Clc1ccc(CN(CCn2cnc3ccccc32)CCn2cnc3ccccc32)c(Cl)c1
4. Cl.Clc1ccc(CN(CCn2ccnc2)CCn2ccnc2)cc1Cl

1. 8
2. 64
3. 32
4. 4

Value sought for every listed compound: MIC.
1. Fc1ccc(CN(CCn2ccnc2)CCn2ccnc2)c(F)c1.O=[N+]([O-])O
2. Clc1ccc(CN(CCn2ccnc2)CCn2ccnc2)c(Cl)c1.O=[N+]([O-])O
3. Clc1ccc(CN(CCn2cncn2)CCn2cncn2)c(Cl)c1.O=[N+]([O-])O
4. Cl.Clc1ccc(CN(CCn2cncn2)CCn2cncn2)c(Cl)c1
5. OCCN(CCO)Cc1ccc(Cl)c(Cl)c1
6. Clc1ccc(CN(CCn2ccnc2)CCn2ccnc2)c(Cl)c1
7. Clc1ccc(CN(CCn2ccnc2)CCn2ccnc2)cc1Cl
8. Clc1ccc(CN(CCn2cncn2)CCn2cncn2)cc1Cl.O=[N+]([O-])O

[16, 16, 128, 128, 128, 32, 16, 16]

# query: MIC of entry `Fc1ccc(CN(CCn2cnc3ccccc32)CCn2cnc3ccccc32)c(F)c1`
64

---

- Test system: Escherichia coli
- experimental protocol: Antibacterial activity against Escherichia coli ATCC 25922 after 24 hrs by micro-broth dilution method
- Format: functional
- measurement context: ATCC 25922, 24 h
readout name: log10 MIC (log10 of the value in µg/mL)
On a log10 scale: recorded MIC, unit µg/mL.

Recorded log10 MIC, per entry:
molecule: Cl.Fc1ccc(CN(CCn2ccnc2)CCn2ccnc2)c(F)c1
measurement target: Escherichia coli
test result: 1.20

molecule: Clc1ccc(CN(CCn2ccnc2)CCn2ccnc2)c(Cl)c1
measurement target: Escherichia coli
test result: 1.20

molecule: Clc1ccc(CN(CCn2ccnc2)CCn2ccnc2)cc1
measurement target: Escherichia coli
test result: 1.51

molecule: O=C(N[C@H](CO)[C@H](O)c1ccc([N+](=O)[O-])cc1)C(Cl)Cl [CHLORAMPHENICOL]
measurement target: Escherichia coli
test result: 0.90

molecule: Cl.Clc1ccc(CN(CCn2cncn2)CCn2cncn2)c(Cl)c1
measurement target: Escherichia coli
test result: 1.51

Value sought for every listed molecule: log10 MIC.
1. Clc1ccc(CN(CCn2cncn2)CCn2cncn2)cc1
2. Fc1ccc(CN(CCn2cncn2)CCn2cncn2)c(F)c1.O=[N+]([O-])O
3. Clc1ccc(CN(CCn2cncn2)CCn2cncn2)c(Cl)c1
4. Clc1ccc(CN(CCn2ccnc2)CCn2ccnc2)cc1Cl.O=[N+]([O-])O
5. OCCN(CCO)Cc1ccc(F)cc1F

2.41
2.11
1.81
0.60
2.11
